assay: Aqueous solubility (deionized water); format: physicochemical; conditions: room temperature
measured.quantity: solubility

q: What measured solubility goes with C=Cc1cc(C(=O)Nc2ccc(C(=N)N)cc2)c(-c2ccc(C(=O)NCC3CC3)nc2C(=O)O)cc1OC.Cl [BCX4161, avoralstat] ?
a: 20 to 40 µg/mL

* * *

experiment: pKa by UV-metric method; assay type: physicochemical; conditions: read-out: pKa Values (second value)
measured.quantity: pKa
Numbers only.

q: What measured pKa goes with C=Cc1cc(C(=O)Nc2ccc(C(=N)N)cc2)c(-c2ccc(C(=O)NCC3CC3)nc2C(=O)O)cc1OC.Cl ?
a: 11.4
